Biological target: Peroxisome proliferator-activated receptor gamma (Homo sapiens, UniProt P37231)
Sequence (P37231 whole entry): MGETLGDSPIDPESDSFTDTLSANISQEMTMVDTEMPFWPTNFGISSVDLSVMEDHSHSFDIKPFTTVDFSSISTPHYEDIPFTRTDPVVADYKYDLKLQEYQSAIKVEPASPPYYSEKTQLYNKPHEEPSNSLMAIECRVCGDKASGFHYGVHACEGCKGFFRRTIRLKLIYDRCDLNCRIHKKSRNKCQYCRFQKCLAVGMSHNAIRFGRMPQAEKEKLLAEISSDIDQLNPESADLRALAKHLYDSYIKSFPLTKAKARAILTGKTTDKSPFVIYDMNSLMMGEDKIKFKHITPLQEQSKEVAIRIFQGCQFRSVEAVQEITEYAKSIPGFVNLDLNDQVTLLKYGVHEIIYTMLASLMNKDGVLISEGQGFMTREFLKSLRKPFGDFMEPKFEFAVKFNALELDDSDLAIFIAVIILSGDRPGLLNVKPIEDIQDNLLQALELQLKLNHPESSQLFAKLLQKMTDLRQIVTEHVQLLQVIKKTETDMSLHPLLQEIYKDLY
Assay: Agonist activity at GAL4-fused PPARgamma (unknown origin) expressed in human HepG2 cells by transactivation assay
Type: cell-based
Details: read-out: pEC50 (converted)
Metric Name: log10 EC50 (log10 of the value in µM)
Field: value | Transform: log10 | Quantity: EC50 | Unit: µM

Query :: For the molecule shown here, `O=C(O)[C@H](CCCc1ccccc1)Oc1ccc(Cl)cc1` , give the reported log10 EC50.
Result :: -0.04

Query :: Ok, now `O=C(O)[C@H](CCc1ccccc1)Oc1ccc(Cl)cc1`
Result :: 0.85

Query :: And then `O=C(O)[C@H](Cc1ccccc1)Oc1ccc(-c2ccc(Cl)cc2)cc1` , what is it?
Result :: 0.95

Query :: Same thing, different molecule: `O=C(O)[C@H](COc1ccccc1)Oc1ccc(Cl)cc1`
Result :: 0.22

Query :: // next record `O=C(O)[C@H](Cc1ccc(-c2ccccc2)cc1)Oc1ccc(Cl)cc1`
Result :: -1.31

Query :: Same lookup for `O=C(O)[C@H](Cc1ccc(Oc2ccccc2)cc1)Oc1ccc(Cl)cc1` , please.
Result :: -1.57
